# key: entry, value: Escherichia coli ATCC 25922 MIC
# System: Escherichia coli ATCC 25922
# Assay type: cell-based
# CONDITION_SUMMARY: ATCC 25922
Where a SMILES comes first, the peptide text is derived from it. Bridges are numbered along the chain shown (N, C = ends). [ ]: non-standard residue; d: D form. Tle = CC(C)(C)[C@H](N)C(=O)O; dDab = NCC[C@@H](N)C(=O)O; Dab = NCC[C@H](N)C(=O)O; dAze = O=C(O)[C@H]1CCN1; Dap = NC[C@H](N)C(=O)O
Please state the figure in µg/mL; there is no need to write the unit.

- MOLECULE: "CC(C)[C@@H]1NC(=O)[C@@H]2CCCN2C(=O)[C@H]2CCN2C(=O)[C@H]([C@@H](C)O)NC(=O)[C@@H]2CC(=O)NCC[C@H](NC1=O)C(=O)N[C@@H](Cc1ccc(O)cc1)C(=O)N[C@@H](CCN)C(=O)N[C@@H](CN)C(=O)N[C@H](CCN)C(=O)N[C@@H](CCN)C(=O)N[C@@H](Cc1c[nH]c3ccccc13)C(=O)N[C@@H](CCN)C(=O)N[C@@H](C(C)(C)C)C(=O)N2 [Example 12] (cyclo(DT[dAze]PV[Dab]Y[Dab][Dap][dDab][Dab]W[Dab][Tle]); lactam 1-6)"
  TESTED_SYSTEM: "Escherichia coli ATCC 25922"
  Escherichia coli ATCC 25922 MIC [µg/mL]: 0.5

Now take the following molecule into account.
// query Need Escherichia coli ATCC 25922 MIC of CC(C)[C@@H]1NC(=O)[C@@H]2CCCN2C(=O)[C@H]2CCN2C(=O)[C@H]([C@@H](C)O)NC(=O)[C@H](CO)NC(=O)[C@H](C(C)(C)C)NC(=O)[C@H](CCN)NC(=O)[C@H](Cc2c[nH]c3ccccc23)NC(=O)[C@H](CCN)NC(=O)[C@@H](CCN)NC(=O)[C@H](CN)NC(=O)[C@H](CCN)NC(=O)[C@H](Cc2ccc(O)cc2)NC(=O)[C@H](CN)NC1=O [Example 41] (cyclo([Dab][Dap][dDab][Dab]W[Dab][Tle]ST[dAze]PV[Dap]Y)) , thanks.
// result 0.5

====

# key: entry, value: Klebsiella pneumoniae ATCC 13883 MIC
# Tested on: Klebsiella pneumoniae ATCC 13883
# Type: cell-based
# CONDITION_SUMMARY: ATCC 13883
Where a SMILES comes first, the peptide text is derived from it. Bridges are numbered along the chain shown (N, C = ends). [ ]: non-standard residue; d: D form. Tle = CC(C)(C)[C@H](N)C(=O)O; dDab = NCC[C@@H](N)C(=O)O; NMeA = CN[C@@H](C)C(=O)O; Orn = NCCC[C@H](N)C(=O)O; Dab = NCC[C@H](N)C(=O)O; dAze = O=C(O)[C@H]1CCN1; Dap = NC[C@H](N)C(=O)O
Please state the figure in µg/mL; there is no need to write the unit.

Some molecules with known Klebsiella pneumoniae ATCC 13883 MIC results, for comparison:
- MOLECULE: "CC(C)[C@@H]1NC(=O)[C@@H]2CCCN2C(=O)[C@H]2CCN2C(=O)[C@H]([C@@H](C)O)NC(=O)[C@@H]2CC(=O)NCC[C@H](NC1=O)C(=O)N[C@@H](Cc1ccc(O)cc1)C(=O)N[C@@H](CCN)C(=O)N[C@@H](CN)C(=O)N[C@H](CCN)C(=O)N[C@@H](CCN)C(=O)N[C@@H](Cc1c[nH]c3ccccc13)C(=O)N[C@@H](CCN)C(=O)N[C@@H](C(C)(C)C)C(=O)N2 [Example 12] (cyclo(DT[dAze]PV[Dab]Y[Dab][Dap][dDab][Dab]W[Dab][Tle]); lactam 1-6)"
  TESTED_SYSTEM: "Klebsiella pneumoniae ATCC 13883"
  Klebsiella pneumoniae ATCC 13883 MIC (µg/mL): 0.25
- MOLECULE: "CC(C)[C@@H]1NC(=O)[C@H](C)N(C)C(=O)[C@H]2CCCN2C(=O)[C@H](CO)NC(=O)[C@@H]2CSSC[C@H](NC1=O)C(=O)N[C@@H](Cc1ccc(O)cc1)C(=O)N[C@@H](CCN)C(=O)N[C@@H](CN)C(=O)N[C@H](CCN)C(=O)N[C@@H](CCN)C(=O)N[C@@H](Cc1c[nH]c3ccccc13)C(=O)N[C@@H](CCN)C(=O)N[C@@H](C(C)(C)C)C(=O)N2 [Example 9] (cyclo(CS[dP][NMeA]VCY[Dab][Dap][dDab][Dab]W[Dab][Tle]); disulfide 1-6)"
  TESTED_SYSTEM: "Klebsiella pneumoniae ATCC 13883"
  Klebsiella pneumoniae ATCC 13883 MIC (µg/mL): 1
- MOLECULE: "CC(C)C[C@@H]1NC(=O)[C@@H]2CCCN2C(=O)[C@H]2CCCN2C(=O)[C@H](CO)NC(=O)[C@@H]2CNC(=O)CC[C@H](NC1=O)C(=O)N[C@@H](Cc1ccc(O)cc1)C(=O)N[C@@H](CCN)C(=O)N[C@@H](CCCN)C(=O)N[C@H](CCN)C(=O)N[C@@H](CCN)C(=O)N[C@@H](Cc1c[nH]c3ccccc13)C(=O)N[C@@H](CCN)C(=O)N[C@@H](C(C)(C)C)C(=O)N2 [Example 34] (cyclo(LEY[Dab][Orn][dDab][Dab]W[Dab][Tle][Dap]S[dP]P); lactam 2-11)"
  TESTED_SYSTEM: "Klebsiella pneumoniae ATCC 13883"
  Klebsiella pneumoniae ATCC 13883 MIC (µg/mL): 0.5

// query Need Klebsiella pneumoniae ATCC 13883 MIC of CC(C)[C@@H]1NC(=O)[C@@H]2CCCN2C(=O)[C@H]2CCN2C(=O)[C@H]([C@@H](C)O)NC(=O)[C@H](CO)NC(=O)[C@H](C(C)(C)C)NC(=O)[C@H](CCN)NC(=O)[C@H](Cc2c[nH]c3ccccc23)NC(=O)[C@H](CCN)NC(=O)[C@@H](CCN)NC(=O)[C@H](CN)NC(=O)[C@H](CCN)NC(=O)[C@H](Cc2ccc(O)cc2)NC(=O)[C@H](CN)NC1=O [Example 41] (cyclo([Dab][Dap][dDab][Dab]W[Dab][Tle]ST[dAze]PV[Dap]Y)) , thanks.
// result 0.25

====

# Test system: Escherichia coli ATCC 25922
# Assay type: cell-based
# CONDITION_SUMMARY: ATCC 25922
Where a SMILES comes first, the peptide text is derived from it. [ ]: non-standard residue; d: D form. Tle = CC(C)(C)[C@H](N)C(=O)O; dDab = NCC[C@@H](N)C(=O)O; Orn = NCCC[C@H](N)C(=O)O; Dab = NCC[C@H](N)C(=O)O; Dap = NC[C@H](N)C(=O)O
RECORDED_METRIC: Escherichia coli ATCC 25922 MIC
Note to self: number, then unit, no commentary.

// query Need Escherichia coli ATCC 25922 MIC of CC(C)C[C@@H]1NC(=O)[C@H]2CCCN2C(=O)[C@H](CO)NC(=O)[C@H](C)NC(=O)[C@H](C(C)(C)C)NC(=O)[C@H](CCN)NC(=O)[C@H](Cc2c[nH]c3ccccc23)NC(=O)[C@H](CCN)NC(=O)[C@@H](CCN)NC(=O)[C@H](CCCN)NC(=O)[C@H](CCN)NC(=O)[C@H](Cc2ccc(O)cc2)NC(=O)[C@H](CN)NC(=O)[C@H](Cc2ccccc2)NC1=O [Example 42] (cyclo(AS[dP]LF[Dap]Y[Dab][Orn][dDab][Dab]W[Dab][Tle])) , thanks.
// result 1 µg/mL

====

# key: entry, value: Klebsiella pneumoniae ATCC 13883 MIC
# Test system: Klebsiella pneumoniae ATCC 13883
# Type: cell-based
# CONDITION_SUMMARY: ATCC 13883
*1 amine or outer side, *2 acyl side, *3 side chain or, on linkers, in order; H or OH if unused. Where a SMILES comes first, the peptide text is derived from it. Bridges are numbered along the chain shown (N, C = ends). [ ]: non-standard residue; d: D form. Tle = CC(C)(C)[C@H](N)C(=O)O; dDab = NCC[C@@H](N)C(=O)O; Orn = NCCC[C@H](N)C(=O)O; Dab = NCC[C@H](N)C(=O)O; Dap = NC[C@H](N)C(=O)O; CO = O=C([*:1])[*:2]
Please state the figure in µg/mL; there is no need to write the unit.

- COMPOUND: "C[C@@H]1NC(=O)[C@H](C(C)(C)C)NC(=O)[C@H](CCN)NC(=O)[C@H](Cc2c[nH]c3ccccc23)NC(=O)[C@H](CCN)NC(=O)[C@@H](CCN)NC(=O)[C@H](CCCN)NC(=O)[C@H](CCN)NC(=O)[C@H](Cc2ccc(O)cc2)NC(=O)[C@H](CN)NC(=O)[C@H](Cc2ccccc2)NC(=O)[C@H](Cc2ccccc2)NC(=O)[C@H]2CCCN2C(=O)[C@H](CO)NC1=O [Example 43] (cyclo(AS[dP]FF[Dap]Y[Dab][Orn][dDab][Dab]W[Dab][Tle]))"
  TESTED_SYSTEM: "Klebsiella pneumoniae ATCC 13883"
  RESULT_NUMBER: 0.25
- COMPOUND: "CC(C)C[C@@H]1NC(=O)[C@H]2CCCN2C(=O)[C@H](CO)NC(=O)[C@H](C)NC(=O)[C@H](C(C)(C)C)NC(=O)[C@H](CCN)NC(=O)[C@H](Cc2c[nH]c3ccccc23)NC(=O)[C@H](CCN)NC(=O)[C@@H](CCN)NC(=O)[C@H](CCCN)NC(=O)[C@H](CCN)NC(=O)[C@H](Cc2ccc(O)cc2)NC(=O)[C@H](CN)NC(=O)[C@H](Cc2ccccc2)NC1=O [Example 42] (cyclo(AS[dP]LF[Dap]Y[Dab][Orn][dDab][Dab]W[Dab][Tle]))"
  TESTED_SYSTEM: "Klebsiella pneumoniae ATCC 13883"
  RESULT_NUMBER: 1
- COMPOUND: "CC(C)[C@@H]1NC(=O)[C@@H]2CCCN2C(=O)[C@H]2CCCN2C(=O)[C@H](CO)NC(=O)[C@@H]2CNC(=O)NC[C@H](NC1=O)C(=O)N[C@@H](Cc1ccc(O)cc1)C(=O)N[C@@H](CCN)C(=O)N[C@@H](CN)C(=O)N[C@H](CCN)C(=O)N[C@@H](CCN)C(=O)N[C@@H](Cc1c[nH]c3ccccc13)C(=O)N[C@@H](CCN)C(=O)N[C@@H](C(C)(C)C)C(=O)N2 [Example 40] (cyclo(V[Dap]Y[Dab][Dap][dDab][Dab]W[Dab][Tle][Dap]S[dP]P); linker 2-11 via CO)"
  TESTED_SYSTEM: "Klebsiella pneumoniae ATCC 13883"
  RESULT_NUMBER: 0.25
- COMPOUND: "CC(C)C[C@@H]1NC(=O)[C@@H]2CCCN2C(=O)[C@H]2CCCN2C(=O)[C@H](CO)NC(=O)[C@@H]2CCC(=O)NC[C@H](NC1=O)C(=O)N[C@@H](Cc1ccc(O)cc1)C(=O)N[C@@H](CCN)C(=O)N[C@@H](CCCN)C(=O)N[C@H](CCN)C(=O)N[C@@H](CCN)C(=O)N[C@@H](Cc1c[nH]c3ccccc13)C(=O)N[C@@H](CCN)C(=O)N[C@@H](C(C)(C)C)C(=O)N2 [Example 29] (cyclo(L[Dap]Y[Dab][Orn][dDab][Dab]W[Dab][Tle]ES[dP]P); lactam 2-11)"
  TESTED_SYSTEM: "Klebsiella pneumoniae ATCC 13883"
  RESULT_NUMBER: 0.5

// query Need Klebsiella pneumoniae ATCC 13883 MIC of CC(C)C[C@@H]1NC(=O)[C@@H]2CCCN2C(=O)[C@H]2CCCN2C(=O)[C@H](CO)NC(=O)[C@@H]2CNC(=O)C[C@H](NC1=O)C(=O)N[C@@H](Cc1ccc(O)cc1)C(=O)N[C@@H](CCN)C(=O)N[C@@H](CCCN)C(=O)N[C@H](CCN)C(=O)N[C@@H](CCN)C(=O)N[C@@H](Cc1c[nH]c3ccccc13)C(=O)N[C@@H](CCN)C(=O)N[C@@H](C(C)(C)C)C(=O)N2 [Example 21] (cyclo(LDY[Dab][Orn][dDab][Dab]W[Dab][Tle][Dap]S[dP]P); lactam 2-11) , thanks.
// result 0.5

Every entry's value here was drawn from patent US10259847B2.
